# System: JAK2-mediated pSTAT5 signaling in constitutively active essential thrombocytopenia cells carrying the V617F mutation
# EXPERIMENT NOTES: SET2-pSTAT5 Cellular Assay
# Type: cell-based
# CONDITION DETAILS: Homo sapiens, SET-2, 4 h
MEASURED ENDPOINT: IC50

Worked examples follow.
CN(C)C(=O)Nc1cc(Oc2cnc3nc(Nc4cc5n(n4)CCC54CCC4)n(C)c3c2C#N)ccn1 [Example I-56] | 125 to 200 nM
COC(=O)Nc1cc(Oc2cnc3nc(Nc4cc(C(F)(F)F)cn(C)c4=O)n(C)c3c2C#N)ccn1 [Example I-3] | < 125 nM
COC(=O)Nc1cc(Oc2cnc3nc(Nc4cc5n(n4)CCC54CCC4)n(C)c3c2C#N)ccn1 [Example I-57] | 125 to 200 nM

Consider the additional molecule presented here.
Req: Tell me measured IC50 for CN(C)C(=O)Nc1cc(Oc2cnc3nc(Nc4cc(C(F)(F)F)cn(C)c4=O)n(C)c3c2C#N)ccn1 [Example I-4] please.
Resp: < 125 nM

###

# MEASURED TARGET: JAK2 (JH1 domain-catalytic, Y1007F,Y1008F) kinase (Homo sapiens, UniProt O60674, Y1007F/Y1008F)
# Construct: made in house; host or cells: transiently transfected HEK293 cells
# Sequence (O60674 849-1124 Y1007F/Y1008F limits assumed): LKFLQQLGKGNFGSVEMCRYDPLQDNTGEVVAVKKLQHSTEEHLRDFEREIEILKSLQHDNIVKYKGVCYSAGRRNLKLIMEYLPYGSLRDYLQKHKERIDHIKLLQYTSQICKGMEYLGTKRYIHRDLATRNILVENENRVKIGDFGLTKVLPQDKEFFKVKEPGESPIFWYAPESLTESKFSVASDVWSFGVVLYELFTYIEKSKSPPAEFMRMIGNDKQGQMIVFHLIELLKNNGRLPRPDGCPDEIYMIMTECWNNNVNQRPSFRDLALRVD
# EXPERIMENT NOTES: JAK2 Binding Assay (JAK2 JH1 Domain Binding Assay)
Measured Kd, listed per entry.

Req: Tell me measured Kd for Cn1cc(C(F)(F)F)cc(Nc2nc3ncc(Oc4ccnc(NC(=O)CF)c4)c(C#N)c3n2C)c1=O [Example I-84] please.
Resp: < 10 nM

Req: Tell me measured Kd for Cn1cc(C(F)(F)F)cc(Nc2nc3ncc(Oc4ccnc(NC(=O)CF)c4)c(Cl)c3n2C)c1=O [Example I-76] please.
Resp: < 10 nM

###

Measured pKd, listed per entry.
# MEASURED TARGET: JAK2 (JH1 domain-catalytic, Y1007F,Y1008F) kinase (Homo sapiens, UniProt O60674, Y1007F/Y1008F)
# Construct: made in house; host or cells: transiently transfected HEK293 cells
# EXPERIMENT NOTES: JAK2 Binding Assay (JAK2 JH1 Domain Binding Assay)
# CONDITION DETAILS: JAK2 JH1 domain binding, qPCR detection; read-out: JAK2 Kd
pKd: −log10 of the molar value.

CC(=O)Nc1cc(Oc2cnc3nc(Nc4ccc([C@H]5CCCN5C)c(C(F)(F)F)c4)n(C)c3c2C#N)ccn1 (single isomer, unassigned) | > 8.00
CO[C@H]1CCN(C(=O)Nc2cc(Oc3cnc4nc(Nc5cc(C(F)(F)F)cn(C)c5=O)n(C)c4c3C#N)ccn2)C1 | > 8.00

Req: Tell me measured pKd for CC(=O)Nc1cc(Oc2cnc3nc(Nc4cc([C@@H]5CCOC5)nc(C(F)(F)F)c4)n(C)c3c2C#N)ccn1 (single isomer, unassigned) please.
Resp: > 8.00

Req: Tell me measured pKd for Cn1cc(C(F)(F)F)cc(Nc2nc3ncc(Oc4ccnc(NC(=O)OCCN5CCOCC5)c4)c(C#N)c3n2C)c1=O please.
Resp: > 8.00

Req: Tell me measured pKd for [2H]C([2H])([2H])n1cc(C(F)(F)F)cc(Nc2nc3ncc(Oc4ccnc(NC(C)=O)c4)c(Cl)c3n2C)c1=O please.
Resp: > 8.00

Req: Tell me measured pKd for CC(=O)Nc1cc(Oc2cnc3nc(Nc4cc5n(n4)CCOCC5(C)C)n(C)c3c2C#N)ccn1 please.
Resp: > 8.00

###

# EXPERIMENT NOTES: Caco2 Permeability Assay
# Format: in vitro ADME
# CONDITION DETAILS: human, pH 7.4, Caco-2, apical to basolateral, 5 μM
MEASURED ENDPOINT: Papp A→B at 2 h, 5 μM (×10⁻⁶ cm/s)

Worked examples follow.
Cn1c(Nc2cc3n(n2)CCOC3(C)C)nc2ncc(Oc3ccnc(NC(=O)O[C@@H]4CCOC4)c3)c(C#N)c21 | 2
CO[C@@H]1CCN(C(=O)Nc2cc(Oc3cnc4nc(Nc5cc6n(n5)CCC65CCC5)n(C)c4c3C#N)ccn2)C1 | 6
COC(=O)Nc1cc(Oc2cnc3nc(Nc4cc(C(F)(F)F)cn(C)c4=O)n(C)c3c2C#N)ccn1 | 12
COC(=O)Nc1cc(Oc2cnc3nc(Nc4cc5n(n4)CCC54CCC4)n(C)c3c2C#N)ccn1 | 5

(I) Cn1c(Nc2cc3n(n2)CCCC3(F)F)nc2ncc(Oc3ccnc(NC(=O)N4CCC4)c3)c(C#N)c21
(II) CC(=O)Nc1cc(Oc2cnc3nc(Nc4cc(C(F)(F)F)cn(C)c4=O)n(C)c3c2Cl)c(F)cn1
(III) Cn1cc(C(F)(F)F)cc(Nc2nc3ncc(Oc4ccnc(NC(=O)O[C@@H]5CCOC5)c4)c(C#N)c3n2C)c1=O
Req: Please rank these compounds by Papp A→B at 2 h, 5 μM in descending order. Answer with the labels in sequence, matching the requested order.
Resp: II, I, III

###

Measured efflux ratio at 2 h, 5 μM, listed per entry.
# EXPERIMENT NOTES: Caco2 Permeability Assay
# Format: in vitro ADME
# CONDITION DETAILS: human, pH 7.4, Caco-2, 5 μM, read-out: Efflux Ratio (ER)

CN(C)C(=O)Nc1cc(Oc2cnc3nc(Nc4cc5n(n4)CCC54CCC4)n(C)c3c2C#N)ccn1 | ≤ 2
COC(=O)Nc1cc(Oc2cnc3nc(Nc4cc(C(F)(F)F)cn(C)c4=O)n(C)c3c2C#N)ccn1 | ≤ 2
Cn1c(Nc2cc3n(n2)CCCC3(F)F)nc2ncc(Oc3ccnc(NC(=O)N4CCC4)c3)c(C#N)c21 | 2 to 5
COCC(=O)Nc1cc(Oc2cnc3nc(Nc4cc(C(F)(F)F)cn(C)c4=O)n(C)c3c2Cl)ccn1 | ≤ 2
CO[C@H]1CCN(C(=O)Nc2cc(Oc3cnc4nc(Nc5cc(C(F)(F)F)cn(C)c5=O)n(C)c4c3C#N)ccn2)C1 | 2 to 5
CCN1CCN(Cc2ccc(Nc3nc4ccc(Oc5ccnc(NC(C)=O)c5)cc4n3C)cc2C(F)(F)F)CC1 [Example R-1, reference compound] | 10 to 30
Cn1cc(C(F)(F)F)cc(Nc2nc3ncc(Oc4ccnc(NC(=O)OCCN5CCOCC5)c4)c(C#N)c3n2C)c1=O | 2 to 5
COCCOC(=O)Nc1cc(Oc2cnc3nc(Nc4cc5n(n4)CCC54CCC4)n(C)c3c2C#N)ccn1 | ≤ 2
COC(=O)Nc1cc(Oc2cnc3nc(Nc4cc5n(n4)CCC54CCC4)n(C)c3c2C#N)ccn1 | ≤ 2
Cn1c(Nc2cc3n(n2)CCOC3(C)C)nc2ncc(Oc3ccnc(NC(=O)O[C@@H]4CCOC4)c3)c(C#N)c21 | 5 to 10

Req: Tell me measured efflux ratio at 2 h, 5 μM for CC(=O)Nc1cc(Oc2cnc3nc(Nc4cc5n(n4)CCCC54CC4)n(C)c3c2C#N)ccn1 please.
Resp: ≤ 2

Req: Tell me measured efflux ratio at 2 h, 5 μM for COC1CN(C(=O)Nc2cc(Oc3cnc4nc(Nc5cc6n(n5)CCCC6(F)F)n(C)c4c3C#N)ccn2)C1 please.
Resp: 5 to 10

Req: Tell me measured efflux ratio at 2 h, 5 μM for Cn1c(Nc2cc3n(n2)CCC32CCC2)nc2ncc(Oc3ccnc(NC(=O)C4CC4)c3)c(C#N)c21 please.
Resp: 2 to 5

Req: Tell me measured efflux ratio at 2 h, 5 μM for CO[C@@H]1CCN(C(=O)Nc2cc(Oc3cnc4nc(Nc5cc6n(n5)CCC65CCC5)n(C)c4c3C#N)ccn2)C1 please.
Resp: ≤ 2

###

# EXPERIMENT NOTES: Kinetic Solubility Assay
# Format: physicochemical
# CONDITION DETAILS: aqueous buffer, kinetic from dmso stock, kinetic solubility in PBS (pH 4.0 and pH 7.4 in method; pH of table values not stated), RT
Measured solubility at 2 h, listed per entry.

COCC(=O)Nc1cc(Oc2cnc3nc(Nc4cc(C(F)(F)F)cn(C)c4=O)n(C)c3c2C#N)ccn1 [Example I-79] | 0.1 to 9 µM

Consider the additional molecule presented here.
Req: Tell me measured solubility at 2 h for CC(=O)Nc1cc(Oc2cnc3nc(Nc4cc5n(n4)CCOCC5(C)C)n(C)c3c2C#N)ccn1 [Example I-118] please.
Resp: 9 to 100 µM

###

# EXPERIMENT NOTES: Hepatocyte Stability Assay, human hepatocytes
# Assay type: in vitro ADME
# CONDITION DETAILS: cryopreserved hepatocytes, read-out: Human Heps CLint
Measured CLint scaled at 1 μM, listed per entry.

Worked examples follow.
CC(=O)Nc1cc(Oc2cnc3nc(Nc4cc5n(n4)CCOCC5(C)C)n(C)c3c2C#N)ccn1 [Example I-118] | ≤ 6 mL/min/kg
COC1CN(C(=O)Nc2cc(Oc3cnc4nc(Nc5cc6n(n5)CCC65CCC5)n(C)c4c3C#N)ccn2)C1 [Example I-61] | ≤ 6 mL/min/kg
COC1CN(C(=O)Nc2cc(Oc3cnc4nc(Nc5cc6n(n5)CCCC6(F)F)n(C)c4c3C#N)ccn2)C1 [Example I-26] | 6 to 12 mL/min/kg

Consider the additional compound presented here.
Req: Tell me measured CLint scaled at 1 μM for COCC(=O)Nc1cc(Oc2cnc3nc(Nc4cc(C(F)(F)F)cn(C)c4=O)n(C)c3c2C#N)ccn1 [Example I-79] please.
Resp: 12 to 20 mL/min/kg
